Test system: SF-295
Run description: Antitumor activity against human SF295 cells
Type: functional
GI50 reference
Only the number, expressed in µM, is required.

Illustrative cases are given below, each with its answer.
Molecule	Output unit	GI50
O=c1[nH]cc(F)c(=O)[nH]1 [FLUOROURACIL]	µM	50.1
OC[C@H]1C[C@](O)(c2ccc(Cl)cc2)[C@@H](c2ccc(Cl)cc2)O1 (relative stereo)	µM	30.2

Below: the item to evaluate.
What GI50 appears in the records for this molecule with SF-295? OC[C@H]1C[C@](O)(c2ccccc2Cl)[C@@H](c2ccccc2Cl)O1 (relative stereo)
26.9

###

Test system: SN12C
Run description: Antitumor activity against human SN12C cells
Type: functional
Parameter: GI50 (µM)
All answers are understood in µM, so give the number only.

Completed entries (count: 2):
Compound	Output unit	GI50
OC[C@H]1C[C@](O)(c2ccccc2Cl)[C@@H](c2ccccc2Cl)O1 (relative stereo)	µM	20.9
OC[C@H]1C[C@](O)(c2ccc(Cl)cc2)[C@@H](c2ccc(Cl)cc2)O1 (relative stereo)	µM	17

Attention now turns to another entry.
What measured GI50 goes with O=c1[nH]cc(F)c(=O)[nH]1 [FLUOROURACIL] ?
25.1
